- Tested on: Escherichia coli
- Procedure text: Antibacterial activity against Escherichia coli by broth dilution method
- Type: functional
Binarize MIC at 200 mg/L; below is fulfilled, at or above is not fulfilled.

Field: below-cutoff. Rule: recorded MIC strictly less than 200 mg/L. Subject: Cc1cc(Cl)nc2ccc3c(=O)c(C(=O)NN4C(=O)C(Cl)C4c4cc([N+](=O)[O-])ccc4O)c[nH]c3c12 (centres undefined)
not fulfilled

Subsequent entry: Cc1cc(Cl)nc2ccc3c(=O)c(C(=O)N/N=C/c4cc([N+](=O)[O-])ccc4O)c[nH]c3c12
fulfilled

Subsequent entry: COc1ccccc1/C=N/NC(=O)c1c[nH]c2c(ccc3nc(Cl)cc(C)c32)c1=O
fulfilled

Subsequent entry: Cc1cc(Cl)nc2ccc3c(=O)c(C(=O)NN4C(=O)C(Cl)C4c4ccccc4O)c[nH]c3c12 (centres undefined)
fulfilled

Subsequent entry: Cc1ccc(C2C(Cl)C(=O)N2NC(=O)c2c[nH]c3c(ccc4nc(Cl)cc(C)c43)c2=O)cc1 (centres undefined)
not fulfilled

Subsequent entry: COc1ccc(/C=N/NC(=O)c2c[nH]c3c(ccc4nc(Cl)cc(C)c43)c2=O)cc1
not fulfilled

Subsequent entry: Cc1cc(Cl)nc2ccc3c(=O)c(C(=O)N/N=C/c4ccc(Cl)cc4)c[nH]c3c12
not fulfilled

Subsequent entry: Cc1cc(Cl)nc2ccc3c(=O)c(C(=O)N/N=C/c4cccc([N+](=O)[O-])c4O)c[nH]c3c12
fulfilled

Subsequent entry: Cc1cc(Cl)nc2ccc3c(=O)c(C(=O)NN)c[nH]c3c12
fulfilled

* * *

Kindly state MIC for each of the entries shown.
- System: Candida albicans
- Procedure text: Antifungal activity against Candida albicans by broth dilution method
- Format: functional
Return type: number; implicit unit µg/mL.

# MIC lookup, item COc1ccc(/C=N/NC(=O)c2c[nH]c3c(ccc4nc(Cl)cc(C)c43)c2=O)cc1
500

Subsequent entry: Cc1cc(Cl)nc2ccc3c(=O)c(C(=O)NN4C(=O)C(Cl)C4c4cc([N+](=O)[O-])ccc4O)c[nH]c3c12 (stereo not given)
250

Subsequent entry: Cc1cc(Cl)nc2ccc3c(=O)c(C(=O)N/N=C/c4ccccc4)c[nH]c3c12
250

Subsequent entry: COc1ccc(C2C(Cl)C(=O)N2NC(=O)c2c[nH]c3c(ccc4nc(Cl)cc(C)c43)c2=O)cc1 (stereo not given)
500

Subsequent entry: Cc1cc(Cl)nc2ccc3c(=O)c(C(=O)N/N=C/c4cc([N+](=O)[O-])ccc4O)c[nH]c3c12
200

* * *

- System: Staphylococcus aureus
- Procedure text: Antibacterial activity against Staphylococcus aureus by broth dilution method
- Assay type: functional
Binarize MIC at 200 µg/mL; below is met, at or above is not met.

Field: below-cutoff. Rule: recorded MIC strictly less than 200 µg/mL. Subject: CCOC(=O)c1c[nH]c2c(ccc3nc(Cl)cc(C)c32)c1=O
met

Subsequent entry: COc1ccccc1/C=N/NC(=O)c1c[nH]c2c(ccc3nc(Cl)cc(C)c32)c1=O
not met

Subsequent entry: O=C(O)c1cn(C2CC2)c2cc(N3CCNCC3)c(F)cc2c1=O [CIPROFLOXACIN]
met

Subsequent entry: COc1ccc(C2C(Cl)C(=O)N2NC(=O)c2c[nH]c3c(ccc4nc(Cl)cc(C)c43)c2=O)cc1 (stereo not drawn)
not met

Subsequent entry: Cc1cc(Cl)nc2ccc3c(=O)c(C(=O)NN4C(=O)C(Cl)C4c4ccccc4O)c[nH]c3c12 (stereo not drawn)
not met

Subsequent entry: Cc1cc(Cl)nc2ccc3c(=O)c(C(=O)N/N=C/c4cccc([N+](=O)[O-])c4O)c[nH]c3c12
not met

Subsequent entry: Cc1cc(Cl)nc2ccc3c(=O)c(C(=O)NN)c[nH]c3c12
not met

Subsequent entry: Cc1cc(Cl)nc2ccc3c(=O)c(C(=O)N/N=C/c4ccccc4Cl)c[nH]c3c12
met

* * *

- Test system: Candida albicans
- Procedure text: Antifungal activity against Candida albicans by broth dilution method
- Assay type: functional
Outcome measure: MIC (µg/mL)
Return type: number; implicit unit µg/mL.

# MIC lookup, item COc1ccccc1C1C(Cl)C(=O)N1NC(=O)c1c[nH]c2c(ccc3nc(Cl)cc(C)c32)c1=O (stereo not given)
250

Subsequent entry: CCOC(=O)c1c[nH]c2c(ccc3nc(Cl)cc(C)c32)c1=O
200

Subsequent entry: Cc1cc(Cl)nc2ccc3c(=O)c(C(=O)NN4C(=O)C(Cl)C4c4ccc(Cl)cc4)c[nH]c3c12 (stereo not given)
200

Subsequent entry: Cc1cc(Cl)nc2ccc3c(=O)c(C(=O)NN)c[nH]c3c12
500

Subsequent entry: COc1cc(C2C(Cl)C(=O)N2NC(=O)c2c[nH]c3c(ccc4nc(Cl)cc(C)c43)c2=O)ccc1O (stereo not given)
1000

Subsequent entry: COc1cc(/C=N/NC(=O)c2c[nH]c3c(ccc4nc(Cl)cc(C)c43)c2=O)ccc1O
250

Subsequent entry: Cc1cc(Cl)nc2ccc3c(=O)c(C(=O)N/N=C/c4cccc([N+](=O)[O-])c4O)c[nH]c3c12
200

Subsequent entry: Cc1cc(Cl)nc2ccc3c(=O)c(C(=O)NN4C(=O)C(Cl)C4c4ccccc4O)c[nH]c3c12 (stereo not given)
500

Subsequent entry: Cc1cc(Cl)nc2ccc3c(=O)c(C(=O)NN4C(=O)C(Cl)C4c4cccc([N+](=O)[O-])c4O)c[nH]c3c12 (stereo not given)
500

Subsequent entry: Cc1cc(Cl)nc2ccc3c(=O)c(C(=O)NN4C(=O)C(Cl)C4c4ccccc4Cl)c[nH]c3c12 (stereo not given)
100

* * *

- Tested on: Staphylococcus aureus
- Procedure text: Antibacterial activity against Staphylococcus aureus by broth dilution method
- Assay type: functional
Outcome measure: MIC
// unit must come after the numeric part

# MIC lookup, item Cc1cc(Cl)nc2ccc3c(=O)c(C(=O)N/N=C/c4ccccc4)c[nH]c3c12
200 µg/mL

Subsequent entry: Cc1cc(Cl)nc2ccc3c(=O)c(C(=O)NN4C(=O)C(Cl)C4c4ccccc4Cl)c[nH]c3c12 (stereo not drawn)
200 µg/mL

Subsequent entry: Cc1cc(Cl)nc2ccc3c(=O)c(C(=O)N/N=C/c4cc([N+](=O)[O-])ccc4O)c[nH]c3c12
200 µg/mL

Entry source: ChEMBL document CHEMBL3045610
